Just for reference, ChEMBL document CHEMBL1135159 is where these values come from.

Reported Inhibition is given for each of the following compounds.
- Tested on: Mus musculus
- measurement.notes: Tested in vivo for inhibition ofTCR stimulated (alpha-CD3 mAb) IL-2 production in mice after oral dosing for 18 hr
- Type: functional
- Design: concentration or dose not given beside the values
endpoint.label: Inhibition (%)

COc1cc(-c2nn([C@H]3CC[C@H](N4CCN(C)CC4)CC3)c3ncnc(N)c23)ccc1NC(=O)OCc1ccccc1 = 14
COc1cc(-c2nn([C@H]3CC[C@H](N4CCN(C)CC4)CC3)c3ncnc(N)c23)ccc1NC(=O)CC(C)(C)c1ccccc1 = 22

* * *

- system: Vascular endothelial growth factor receptor 2 (Homo sapiens)
- measurement.notes: Inhibition of human VEGF-receptor 2 (kdr) kinase.
pIC50: −log10 of the molar value.
endpoint.label: pIC50

CN1CCN([C@H]2CC[C@H](n3nc(-c4ccc(NCc5cc6ccccc6[nH]5)cc4)c4c(N)ncnc43)CC2)CC1 = 6.36
COc1cc(-c2nn([C@H]3CC[C@H](N4CCN(C)CC4)CC3)c3ncnc(N)c23)ccc1NC(=O)OCc1ccccc1 = 4.47
COc1cc(-c2nn([C@H]3CC[C@H](N4CCN(C)CC4)CC3)c3ncnc(N)c23)ccc1NC(=O)CC(C)(C)c1ccccc1 = 4.46
CN1CCN([C@H]2CC[C@H](n3nc(-c4ccc(Nc5ccccc5)cc4)c4c(N)ncnc43)CC2)CC1 = 5.42
COc1cc(-c2nn([C@H]3CC[C@H](N4CCN(C)CC4)CC3)c3ncnc(N)c23)ccc1NC(=O)Nc1ccccc1 = 6.58

* * *

- measurement.notes: Compound was evaluated for pharmacokinetic parameter percent bioavailability at 8 h
- Assay type: ADME, organism-based
- measurement.setup: rat, in vivo
endpoint.label: half-life

CN1CCN([C@H]2CC[C@H](n3nc(-c4ccc(Oc5ccccc5)cc4)c4c(N)ncnc43)CC2)CC1 = 5.2 h

* * *

- measurement.notes: Compound was evaluated for pharmacokinetic parameter volume of distribution
- Assay type: ADME, organism-based
- measurement.setup: rat, in vivo
endpoint.label: Vd (L/kg)

CN1CCN([C@H]2CC[C@H](n3nc(-c4ccc(Oc5ccccc5)cc4)c4c(N)ncnc43)CC2)CC1 = 9.6

* * *

- Tested on: Mus musculus
- measurement.notes: Tested in vivo for inhibition ofTCR stimulated (alpha-CD3 mAb) IL-2 production in mice after oral dosing
- Type: functional
Reported ED90 is given for each of the following molecules.
endpoint.label: ED90 (mg/kg)

COc1cc(-c2nn([C@H]3CC[C@H](N4CCN(C)CC4)CC3)c3ncnc(N)c23)ccc1NC(=O)c1ccccc1 = 23
COc1cc(-c2nn([C@H]3CC[C@H](N4CCN(C)CC4)CC3)c3ncnc(N)c23)ccc1NC(=O)c1cc2ccccc2o1 = 12.5
COc1cc(-c2nn([C@H]3CC[C@H](N4CCN(C)CC4)CC3)c3ncnc(N)c23)ccc1NC(=O)CC(C)(C)c1ccccc1 = 12.5
CN1CCN([C@H]2CC[C@H](n3nc(-c4ccc(Nc5ccccc5)cc4)c4c(N)ncnc43)CC2)CC1 = 10.7
CN1CCN([C@H]2CC[C@H](n3nc(-c4ccc(Oc5ccccc5)cc4)c4c(N)ncnc43)CC2)CC1 = 6
COc1cc(-c2nn([C@H]3CC[C@H](N4CCN(C)CC4)CC3)c3ncnc(N)c23)ccc1NC(=O)CCc1ccccc1 = 30
COc1cc(-c2nn([C@H]3CC[C@H](N4CCN(C)CC4)CC3)c3ncnc(N)c23)ccc1NC(=O)OCc1ccccc1 = 14

* * *

- measurement.notes: Compound was evaluated for pharmacokinetic parameter maximum time period
- Assay type: ADME, organism-based
- measurement.setup: rat, in vivo
endpoint.label: Tmax (h)

CN1CCN([C@H]2CC[C@H](n3nc(-c4ccc(Oc5ccccc5)cc4)c4c(N)ncnc43)CC2)CC1 = 1.5

* * *

- System: Mus musculus
- measurement.notes: Tested in vivo for inhibition ofTCR stimulated (alpha-CD3 mAb) IL-2 production in mice after oral dosing for 18 hr
- Type: functional
- Design: concentration or dose not given beside the values
endpoint.label: Inhibition

CN1CCN([C@H]2CC[C@H](n3nc(-c4ccc(Oc5ccccc5)cc4)c4c(N)ncnc43)CC2)CC1 = 49%
COc1cc(-c2nn([C@H]3CC[C@H](N4CCN(C)CC4)CC3)c3ncnc(N)c23)ccc1NC(=O)c1cc2ccccc2o1 = <10%
CN1CCN([C@H]2CC[C@H](n3nc(-c4ccc(Nc5ccccc5)cc4)c4c(N)ncnc43)CC2)CC1 = <10%
COc1cc(-c2nn([C@H]3CC[C@H](N4CCN(C)CC4)CC3)c3ncnc(N)c23)ccc1NC(=O)CCc1ccccc1 = <10%

* * *

- measurement.notes: Compound was evaluated for pharmacokinetic parameter percent bioavailability at 18 h
- Format: ADME, organism-based
- measurement.setup: rat, in vivo
endpoint.label: bioavailability (%)

CN1CCN([C@H]2CC[C@H](n3nc(-c4ccc(Oc5ccccc5)cc4)c4c(N)ncnc43)CC2)CC1 = 69

* * *

- system: Vascular endothelial growth factor receptor 2 (Homo sapiens, UniProt P35968)
- Sequence (P35968 whole entry): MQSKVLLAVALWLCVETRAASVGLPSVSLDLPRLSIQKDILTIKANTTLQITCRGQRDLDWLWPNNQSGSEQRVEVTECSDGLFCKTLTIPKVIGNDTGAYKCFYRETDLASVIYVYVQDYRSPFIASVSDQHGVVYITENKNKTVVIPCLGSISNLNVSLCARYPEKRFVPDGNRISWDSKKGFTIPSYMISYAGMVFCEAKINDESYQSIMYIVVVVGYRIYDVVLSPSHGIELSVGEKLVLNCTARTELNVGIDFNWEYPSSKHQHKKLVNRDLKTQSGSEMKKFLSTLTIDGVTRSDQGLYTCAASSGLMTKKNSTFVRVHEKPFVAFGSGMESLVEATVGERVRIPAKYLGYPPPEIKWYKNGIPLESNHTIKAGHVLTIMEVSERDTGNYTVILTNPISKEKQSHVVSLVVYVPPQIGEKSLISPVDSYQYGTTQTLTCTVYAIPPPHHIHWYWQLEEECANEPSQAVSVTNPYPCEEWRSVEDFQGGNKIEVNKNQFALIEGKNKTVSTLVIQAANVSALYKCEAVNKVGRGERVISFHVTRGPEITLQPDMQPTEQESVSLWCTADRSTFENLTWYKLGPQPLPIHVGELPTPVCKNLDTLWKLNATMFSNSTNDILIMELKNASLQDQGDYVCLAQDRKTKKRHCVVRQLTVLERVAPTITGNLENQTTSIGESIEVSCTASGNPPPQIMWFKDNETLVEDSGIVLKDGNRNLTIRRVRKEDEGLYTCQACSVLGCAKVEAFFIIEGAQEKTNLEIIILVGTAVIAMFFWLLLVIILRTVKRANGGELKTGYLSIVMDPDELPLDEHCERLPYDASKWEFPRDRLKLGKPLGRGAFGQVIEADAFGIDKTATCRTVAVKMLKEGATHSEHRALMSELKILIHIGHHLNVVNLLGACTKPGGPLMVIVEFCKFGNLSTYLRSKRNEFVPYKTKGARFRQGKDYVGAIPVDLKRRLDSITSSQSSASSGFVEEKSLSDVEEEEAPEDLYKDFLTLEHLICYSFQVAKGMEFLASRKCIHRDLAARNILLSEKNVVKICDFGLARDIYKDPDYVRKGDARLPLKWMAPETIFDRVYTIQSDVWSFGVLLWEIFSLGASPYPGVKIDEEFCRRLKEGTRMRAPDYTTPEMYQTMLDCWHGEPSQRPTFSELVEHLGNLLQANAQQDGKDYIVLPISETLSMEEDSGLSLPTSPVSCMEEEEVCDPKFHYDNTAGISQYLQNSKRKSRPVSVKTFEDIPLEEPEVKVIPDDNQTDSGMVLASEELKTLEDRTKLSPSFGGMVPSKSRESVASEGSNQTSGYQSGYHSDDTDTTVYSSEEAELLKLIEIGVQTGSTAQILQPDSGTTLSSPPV
- measurement.notes: Inhibition of human VEGF-receptor 2 (kdr) kinase.
endpoint.label: IC50

COc1cc(-c2nn([C@H]3CC[C@H](N4CCN(C)CC4)CC3)c3ncnc(N)c23)ccc1NC(=O)c1ccccc1 = > 50 µM
COc1cc(-c2nn([C@H]3CC[C@H](N4CCN(C)CC4)CC3)c3ncnc(N)c23)ccc1NC(=O)CCc1ccccc1 = > 50 µM
CN1CCN([C@H]2CC[C@H](n3nc(-c4ccc(C(=O)c5ccccc5)cc4)c4c(N)ncnc43)CC2)CC1 = > 50 µM
COc1cc(-c2nn([C@H]3CC[C@H](N4CCN(C)CC4)CC3)c3ncnc(N)c23)ccc1NC(=O)C(C)(C)Cc1ccccc1 = > 50 µM
COc1cc(-c2nn([C@H]3CC[C@H](N4CCN(C)CC4)CC3)c3ncnc(N)c23)ccc1NC(=O)c1cc2ccccc2o1 = > 50 µM
COc1cc(Cc2nn([C@H]3CC[C@H](N4CCN(C)CC4)CC3)c3ncnc(N)c23)ccc1NC(=O)[C@@H]1C[C@H]1c1ccccc1 = > 50 µM
COc1cc(-c2nn([C@H]3CC[C@H](N4CCN(C)CC4)CC3)c3ncnc(N)c23)ccc1NS(=O)(=O)c1ccccc1 = > 50 µM
